Source of measurements: ChEMBL document CHEMBL4665640

Test: 1-octanol/phosphate buffer distribution coefficient, log D of the compound at pH 7.4 measured after 30 mins by HPLC-LC/MS based shake flask method
Assay type: physicochemical
Endpoint name: logD at 0.5 h

A selection of reference data follows.
# logD at 0.5 h (molecule: COc1cc(Oc2ccc(C)nc2C)cc2c1nc(COc1cccc(C(=O)O)c1)n2C ) is 1.2

Consider Cc1ncccc1Oc1ccc2nc(COc3cccc(C(=O)O)c3)n(C)c2c1 . Its measured logD at 0.5 h is 1

logD at 0.5 h reading for Cc1ccc(Oc2ccc3nc(COc4cccc(C(=O)O)c4)n(C)c3c2C)c(C)n1 : 1.8

Lookup result for Cc1ccc(Oc2ccc3nc(COc4cccc(C(=O)O)c4)n(C)c3c2)cn1 ; measured logD at 0.5 h: 0.8

(P) COc1ncccc1Oc1ccc2nc(COc3cccc(C(=O)O)c3)n(C)c2c1
(Q) CCOc1cc(Oc2ncc(C)cc2C)cc2c1nc(COc1cccc(C(=O)O)c1)n2C
(R) Cn1c(COc2cccc(C(=O)O)c2)nc2ccc(Oc3cccnc3)cc21
Ask: List from greatest to least logD at 0.5 h. // respond by listing labels in the order requested
Reply: Q, P, R
(Q: 1.7, P: 0.9, R: 0.5)

(I) Cc1ccc(Oc2ccc3nc(COc4cccc(C(=O)O)c4)n(C)c3c2)c(C)n1
(II) Cc1ccc(Oc2cc(OC(C)C)c3nc(COc4cccc(C(=O)O)c4)n(C)c3c2)c(C)n1
Ask: Please compare: I and II . Report which one has the smaller logD at 0.5 h value. Please indicate the selected item by its label.
Reply: I
(I: 1.3, II: 1.9)

###

Assay: Volume of distribution at steady state in mouse at 1 mg/kg, iv by LC-MS/MS analysis
Type: ADME, organism-based
Details: in vivo, read-out: Vdss
Endpoint name: Vd (L/kg)
Give just the number in L/kg; leave the unit off.

// Cc1ccc(Oc2ccc3nc(COc4cccc(C(=O)O)c4)n(C)c3c2F)c(C)n1 : Vd value = 0.62

###

Assay: Tmax in cynomolgus monkey at 3 mg/kg, po by LC-MS/MS analysis
Type: ADME, organism-based, Macaca fascicularis
Details: in vivo
Endpoint name: Tmax (h)

(A) COc1cc(Oc2ccc3nc(COc4cccc(C(=O)O)c4)n(C)c3n2)cc(C)n1
(B) Cc1ccc(Oc2ccc3nc(COc4cccc(C(=O)O)c4)n(C)c3c2F)c(C)n1
Ask: Task for the reader: decide whether A or B has the larger Tmax. Output the label that corresponds to your choice.
Reply: A

###

Test: Microsomal stability in monkey liver microsomes assessed as parent compound remaining after 30 mins
Assay type: ADME, Macaca mulatta, Microsome
Details: rhesus monkey, read-out: Stabilty
Endpoint name: remaining at 0.5 h (%)

Recorded remaining at 0.5 h (molecule COc1cc(Oc2ccc3nc(COc4cccc(C(=O)O)c4)n(C)c3c2)ccn1 ): 100

Lab book: remaining at 0.5 h of COc1cc(Oc2ccc3nc(COc4cccc(C(=O)O)c4)n(C)c3c2)cc(C)n1 noted as 85

Recorded result, Cc1cnc(Oc2cc(OC(C)C)c3nc(COc4cccc(C(=O)O)c4)n(C)c3c2)c(C)c1 , remaining at 0.5 h: 84

Field remaining at 0.5 h (entry Cc1ccc(Oc2ccc3nc(COc4cccc(C(=O)O)c4)n(C)c3c2F)c(C)n1 ) reads 100

The molecule identified as Cc1cnc(Oc2ccc3nc(COc4cccc(C(=O)O)c4)n(C)c3c2)c(C)c1 registered its remaining at 0.5 h at 80

###

Assay: Volume of distribution at steady state in cynomolgus monkey at 1 mg/kg, iv by LC-MS/MS analysis
Format: ADME, organism-based, Macaca fascicularis
Settings: in vivo, read-out: Vdss
Endpoint name: Vd (L/kg)

(P) COc1cc(Oc2ccc3nc(COc4cccc(C(=O)O)c4)n(C)c3n2)cc(C)n1
(Q) Cc1ccc(Oc2ccc3nc(COc4cccc(C(=O)O)c4)n(C)c3c2F)c(C)n1
Ask: # return whichever of P and Q has the smaller Vd State your choice using its label.
Reply: Q

###

Test: Microsomal stability in monkey liver microsomes assessed as parent compound remaining after 30 mins
Type: ADME, Macaca mulatta, Microsome
Conditions: rhesus monkey, read-out: Stabilty
Endpoint name: remaining at 0.5 h (%)

Looking up COc1cc(Oc2ccc3nc(COc4cccc(C(=O)O)c4)n(C)c3n2)cc(C)n1 , I found its remaining at 0.5 h recorded as 100

Cc1ccc(Oc2cc(OC(C)C)c3nc(COc4cccc(C(=O)O)c4)n(C)c3c2)c(C)n1 has a reported remaining at 0.5 h of 81

response.value for Cc1ccc(Oc2ccc3nc(COc4cccc(C(=O)O)c4)n(C)c3c2)c(C)n1 (field: remaining at 0.5 h) = 100

Entry under test: COc1ncc(Oc2ccc3nc(COc4cccc(C(=O)O)c4)n(C)c3c2)cc1C . Its remaining at 0.5 h was 98

The molecule identified as COc1cc(Oc2cc(OC(C)C)c3nc(COc4cccc(C(=O)O)c4)n(C)c3c2)ccn1 registered its remaining at 0.5 h at 94

###

Assay: Tmax in rat at 3 mg/kg, po by LC-MS/MS analysis
Format: ADME, organism-based
Conditions: in vivo
Endpoint name: Tmax (h)
All answers are understood in h, so give the number only.

Measured Tmax of Cc1ccc(Oc2ccc3nc(COc4cccc(C(=O)O)c4)n(C)c3c2F)c(C)n1 : 2.25

###

Assay: Cmax in mouse at 3 mg/kg, po by LC-MS/MS analysis
Format: ADME, organism-based
Parameters: route oral, dose 3 mg/kg
Settings: in vivo
Endpoint name: Cmax (ng/mL)
The reply should be a number in ng/mL, with the unit left off.

Cc1ccc(Oc2ccc3nc(COc4cccc(C(=O)O)c4)n(C)c3c2F)c(C)n1 yielded Cmax of 1290

###

Assay: Volume of distribution at steady state in rat at 1 mg/kg, iv by LC-MS/MS analysis
Format: ADME, organism-based
Settings: in vivo, read-out: Vdss
Endpoint name: Vd (L/kg)
# output: bare number, implied unit L/kg

Quick note, Vd for Cc1ccc(Oc2ccc3nc(COc4cccc(C(=O)O)c4)n(C)c3c2F)c(C)n1 landed at 0.27

###

Assay: AUClast in mouse at 3 mg/kg, po by LC-MS/MS analysis
Type: ADME, organism-based
Parameters: time 0 - last, route oral, dose 3 mg/kg
Conditions: in vivo
Endpoint name: AUC(0-t) (ng·h/mL)
# value in ng·h/mL; strip the unit string

The compound identified as Cc1ccc(Oc2ccc3nc(COc4cccc(C(=O)O)c4)n(C)c3c2F)c(C)n1 registered its AUC(0-t) at 2070

###

Assay: Microsomal stability in rat liver microsomes assessed as parent compound remaining after 30 mins
Format: ADME, Microsome
Conditions: read-out: Stabilty
Endpoint name: remaining at 0.5 h (%)

For reference, reported remaining at 0.5 h for Cc1ccc(Oc2ccc3nc(COc4cccc(C(=O)O)c4)n(C)c3c2)c(C)n1 stands at 100

remaining at 0.5 h recorded for this compound, COc1cc(Oc2ccc3nc(COc4cccc(C(=O)O)c4)n(C)c3n2)cc(C)n1 , is 98

Lab note: COc1cc(Oc2ccc3nc(COc4cccc(C(=O)O)c4)n(C)c3c2)cc(C)n1 gave remaining at 0.5 h of 96

For record Cc1ccc(Oc2ccc3nc(COc4cccc(C(=O)O)c4)n(C)c3c2F)c(C)n1 the listed remaining at 0.5 h is 100

// remaining at 0.5 h lookup, compound = COc1cc(Oc2ccc3nc(COc4cccc(C(=O)O)c4)n(C)c3c2)ccn1 , result: 100

###

Experiment: Microsomal stability in rat liver microsomes assessed as parent compound remaining after 30 mins
Assay type: ADME, Microsome
Conditions: read-out: Stabilty
Endpoint name: remaining at 0.5 h (%)

The reported value for Cc1ccc(Oc2cc(OC(C)C)c3nc(COc4cccc(C(=O)O)c4)n(C)c3c2)c(C)n1 in terms of remaining at 0.5 h is 65

The recorded remaining at 0.5 h for entry COc1cc(Oc2cc(OC(C)C)c3nc(COc4cccc(C(=O)O)c4)n(C)c3c2)ccn1 equals 91

(1) COc1ncc(Oc2ccc3nc(COc4cccc(C(=O)O)c4)n(C)c3c2)cc1C
(2) Cc1cnc(Oc2cc(OC(C)C)c3nc(COc4cccc(C(=O)O)c4)n(C)c3c2)c(C)c1
Ask: // which entry has the larger remaining at 0.5 h value, 1 or 2 ? Write down the label attached to your selection.
Reply: 1
(1: 82%, 2: 13%)

###

Assay: Cmax in rat at 3 mg/kg, po by LC-MS/MS analysis
Type: ADME, organism-based
Parameters: route oral, dose 3 mg/kg
Conditions: in vivo
Endpoint name: Cmax (ng/mL)
State just the number; it will be interpreted in ng/mL.

response.value for Cc1ccc(Oc2ccc3nc(COc4cccc(C(=O)O)c4)n(C)c3c2F)c(C)n1 (field: Cmax) = 3490

###

Assay: AUClast in cynomolgus monkey at 3 mg/kg, po by LC-MS/MS analysis
Type: ADME, organism-based, Macaca fascicularis
Set-up: time 0 - last, route oral, dose 3 mg/kg
Details: in vivo
Endpoint name: AUC(0-t) (ng·h/mL)

(a) COc1cc(Oc2ccc3nc(COc4cccc(C(=O)O)c4)n(C)c3n2)cc(C)n1
(b) Cc1ccc(Oc2ccc3nc(COc4cccc(C(=O)O)c4)n(C)c3c2F)c(C)n1
Ask: Which shows the larger AUC(0-t) value: a or b ? Record your answer as the label of the chosen record.
Reply: b
(b: 128000 ng·h/mL, a: 5120 ng·h/mL)
